Tested on: PC-3
Assay: Growth inhibition of human PC3 cells assessed tumor cell growth at 10^-5 M
Assay type: functional
Set-up: scale not given: the % may be the effect or the level left
REPORTED_METRIC: Activity (%)

{"COMPOUND_STRUCTURE_STRING": "O=C1/C(=C\\c2cn(C(=O)c3ccc(Cl)cc3)c3ccccc23)c2ccccc2N1C(=O)c1ccc(Cl)cc1", "TESTED_TARGET": "PC-3", "REPORTED_MEASUREMENT": 65.7}
{"COMPOUND_STRUCTURE_STRING": "O=C1C(=Cc2cn(Cc3ccccc3)c3ccccc23)C(=O)N(Cc2ccccc2)C(=O)N1Cc1ccccc1", "TESTED_TARGET": "PC-3", "REPORTED_MEASUREMENT": 90.3}
{"COMPOUND_STRUCTURE_STRING": "O=C1Nc2ccccc2/C1=C/c1cn(C(=O)c2c(Cl)cccc2Cl)c2ccccc12", "TESTED_TARGET": "PC-3", "REPORTED_MEASUREMENT": 41.7}
{"COMPOUND_STRUCTURE_STRING": "Cc1ccc(S(=O)(=O)n2cc(/C=C3\\C(=O)Nc4ccccc43)c3ccccc32)cc1", "TESTED_TARGET": "PC-3", "REPORTED_MEASUREMENT": 92.8}
{"COMPOUND_STRUCTURE_STRING": "O=C1/C(=C\\c2coc3ccccc3c2=O)c2ccccc2N1c1c(Cl)cccc1Cl", "TESTED_TARGET": "PC-3", "REPORTED_MEASUREMENT": 31.81}
{"COMPOUND_STRUCTURE_STRING": "CC1=NN(c2cccc(Cl)c2)C(=O)/C1=C\\c1coc2ccccc2c1=O", "TESTED_TARGET": "PC-3", "REPORTED_MEASUREMENT": 108.19}
{"COMPOUND_STRUCTURE_STRING": "CN1C(=O)C(=Cc2coc3ccccc3c2=O)C(=O)N(C)C1=O", "TESTED_TARGET": "PC-3", "REPORTED_MEASUREMENT": 94.7}
